Target: T1, IL-2Rβ/γ on M07e cells (human, UniProt P14784 27-551; P31785 23-369)
T1 sequence (looked up) 1: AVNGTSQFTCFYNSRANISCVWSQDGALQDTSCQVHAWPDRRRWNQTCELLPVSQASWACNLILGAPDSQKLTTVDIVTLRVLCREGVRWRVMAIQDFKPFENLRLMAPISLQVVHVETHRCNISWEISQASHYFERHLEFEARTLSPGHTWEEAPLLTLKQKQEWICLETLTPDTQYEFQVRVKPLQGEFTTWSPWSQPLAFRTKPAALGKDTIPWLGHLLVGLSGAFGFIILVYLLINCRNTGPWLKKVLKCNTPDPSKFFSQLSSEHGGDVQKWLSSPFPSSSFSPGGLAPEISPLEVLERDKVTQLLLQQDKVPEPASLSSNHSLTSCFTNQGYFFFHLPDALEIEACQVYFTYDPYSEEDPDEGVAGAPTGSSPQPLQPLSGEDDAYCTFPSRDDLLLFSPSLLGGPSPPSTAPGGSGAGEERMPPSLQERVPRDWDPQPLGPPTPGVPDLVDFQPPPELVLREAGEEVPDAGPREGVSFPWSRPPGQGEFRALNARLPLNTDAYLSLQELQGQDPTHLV
T1 sequence (looked up) 2: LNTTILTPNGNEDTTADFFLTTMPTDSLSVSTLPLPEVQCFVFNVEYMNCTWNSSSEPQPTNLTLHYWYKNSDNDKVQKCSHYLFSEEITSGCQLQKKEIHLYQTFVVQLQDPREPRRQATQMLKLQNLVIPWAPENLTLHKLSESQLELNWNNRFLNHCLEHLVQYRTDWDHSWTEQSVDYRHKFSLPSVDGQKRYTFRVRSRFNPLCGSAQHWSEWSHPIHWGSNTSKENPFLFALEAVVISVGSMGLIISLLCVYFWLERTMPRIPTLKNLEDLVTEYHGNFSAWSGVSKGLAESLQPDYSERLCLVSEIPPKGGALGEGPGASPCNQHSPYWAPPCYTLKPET
Assay: cell-based or functional assay
Reported M07e cell proliferation activity (%) at 333 nM is given for each of the following binders.
Express your answer in %, writing the number without its unit.

PEGylated IL-2 mutant (PEG-IL-2v) (ligand, PEGylated (site not stated)) APASSSTKKTQLQLEHLLLDLQMILQGISNYKNPKLTRMLTAKFYMPKKATELKHLQCLEEELKPLEEVLQGAQSKNFHLRPRDLISNINVIVLELKGSETTFMCEYADETATIVEFLNRWITFAQSIISTLT    102
A-D20A (Fc fusion, also called PD-1-IL-2v (D20A); not shown: IgG1 hinge (C220S) + Fc Knob chain (L234A, L235A, S354C, T366W, EU); D356/L358 or E356/M358 ver; IgG1 hinge (C220S) + Fc Hole chain (L234A, L235A, Y349C, T366S, L368A, Y407V; may have H435R, Y436F; EU)) chain (part 1 of 2): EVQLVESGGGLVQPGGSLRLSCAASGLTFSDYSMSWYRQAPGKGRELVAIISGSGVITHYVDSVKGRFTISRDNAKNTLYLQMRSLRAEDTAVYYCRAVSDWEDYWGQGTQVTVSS chain (part 2 of 2): GGGGSGGGGSGGGGSAPASSSTKKTQLQLEHLLLALQMILQGISNYKNPKLTRMLTAKFYMPKKATELKHLQCLEEELKPLEEVLQGAQSKNFHLRPRDLISNINVIVLELKGSETTFMCEYADETATIVEFLNRWITFAQSIISTLT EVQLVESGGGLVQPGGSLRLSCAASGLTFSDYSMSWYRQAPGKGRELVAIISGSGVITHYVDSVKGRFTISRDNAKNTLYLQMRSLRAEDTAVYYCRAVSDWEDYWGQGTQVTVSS    -1.9
A-PC (Fc fusion, also called positive control molecule A-PC; PD-1-IL-2v; not shown: IgG1 hinge (C220S) + Fc Knob chain (L234A, L235A, S354C, T366W, EU); D356/L358 or E356/M358 ver; IgG1 hinge (C220S) + Fc Hole chain (L234A, L235A, Y349C, T366S, L368A, Y407V; may have H435R, Y436F; EU)) chain (part 1 of 2): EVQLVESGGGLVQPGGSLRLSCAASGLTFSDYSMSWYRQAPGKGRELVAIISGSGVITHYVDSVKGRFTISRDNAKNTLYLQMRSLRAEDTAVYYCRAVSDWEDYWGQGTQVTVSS chain (part 2 of 2): GGGGSGGGGSGGGGSAPASSSTKKTQLQLEHLLLDLQMILQGISNYKNPKLTRMLTAKFYMPKKATELKHLQCLEEELKPLEEVLQGAQSKNFHLRPRDLISNINVIVLELKGSETTFMCEYADETATIVEFLNRWITFAQSIISTLT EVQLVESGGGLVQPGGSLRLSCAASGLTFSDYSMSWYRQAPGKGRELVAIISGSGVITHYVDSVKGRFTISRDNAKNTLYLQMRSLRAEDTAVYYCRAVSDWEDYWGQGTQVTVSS    89.8

// query M07e cell proliferation activity (%) at 333 nM value for entry A-N88D (Fc fusion, also called PD-1-IL-2v (N88D); not shown: IgG1 hinge (C220S) + Fc Knob chain (L234A, L235A, S354C, T366W, EU); D356/L358 or E356/M358 ver; IgG1 hinge (C220S) + Fc Hole chain (L234A, L235A, Y349C, T366S, L368A, Y407V; may have H435R, Y436F; EU)) chain (part 1 of 2): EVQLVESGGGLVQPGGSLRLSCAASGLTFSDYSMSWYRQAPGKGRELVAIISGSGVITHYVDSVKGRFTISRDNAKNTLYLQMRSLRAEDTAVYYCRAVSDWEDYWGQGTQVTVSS chain (part 2 of 2): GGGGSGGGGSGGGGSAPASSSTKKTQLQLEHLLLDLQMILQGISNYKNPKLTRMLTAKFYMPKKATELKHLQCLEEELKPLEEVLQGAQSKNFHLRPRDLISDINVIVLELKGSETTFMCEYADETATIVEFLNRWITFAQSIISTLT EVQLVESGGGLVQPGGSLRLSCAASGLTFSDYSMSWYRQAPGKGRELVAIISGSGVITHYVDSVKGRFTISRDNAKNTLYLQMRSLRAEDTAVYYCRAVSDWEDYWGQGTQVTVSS
0.2
